assay: folding enthalpy; higher = less favourable; fluorescence melt of hairpins on a sequencing array, two-state fit; conditions: sodium 0.088 M
Here the recorded folding enthalpy is given for each entry.
Provide the reading as a plain figure in kJ/mol.

GCTGTACCGAAAGGTAGC (((..(((....)))))) | -64.3

Ask: Quick one: folding enthalpy of GTGCACGAAAGTGGTCAC ((((((....)))..))) ?
Reply: -66.7

Ask: Quick one: folding enthalpy of GTTGAGGGAAACCTTAAC (((.(((....))).))) ?
Reply: -131

Ask: Quick one: folding enthalpy of GCCAGCGAAAGCTGCGGC ((((((....)))..))) ?
Reply: -54.3

Ask: Quick one: folding enthalpy of TGTGTGAAAACACA (((((....))))) ?
Reply: -83.6

Ask: Quick one: folding enthalpy of GTGGTCGGAAACGACCGC (.(((((....))))).) ?
Reply: -74.6

Ask: Quick one: folding enthalpy of GATCTGAGATCAGATC ((((((....)))))) ?
Reply: -151

Ask: Quick one: folding enthalpy of GAGCAAGGAAACTTGCCC (.(((((....))))).) ?
Reply: -46

Ask: Quick one: folding enthalpy of CCCAGGAAACTGGG (((((....))))) ?
Reply: -85.4

Ask: Quick one: folding enthalpy of GCGAGCCATCGC ((((....)))) ?
Reply: -119

Ask: Quick one: folding enthalpy of GCTCACGAAAGTGGAGC ((((((....))).))) ?
Reply: -115

Ask: Quick one: folding enthalpy of GGGAACACGAAAGTGCCC (((..(((....)))))) ?
Reply: -82.7

====

assay: folding enthalpy; higher = less favourable; fluorescence melt of hairpins on a sequencing array, two-state fit; conditions: sodium 0.088 M
Would you please tag the item Condition met when its folding enthalpy is -20 kcal/mol or above, and Condition not met when it is below?

GCGGCCGAAAGGCGACGC ((((((....)))..))) | Condition met
GTAGGCGAAAGCCCATAC ((((((....)))..))) | Condition met
GATCCGAAAGCGGATC ((((((....)))))) | Condition not met
GATCTCTGGGGAGATC ((((((....)))))) | Condition not met
GAAAGCGAAAGCTACTTC ((((((....)))..))) | Condition met

Consider now this further sequence.
Ask: Does folding enthalpy meet or surpass -20 kcal/mol for GTGGTCGAAAGACTACAC ((((((....)))..))) ?
Reply: Condition met

====

test: melting temperature; fluorescence melt of hairpins on a sequencing array, two-state fit, raised by 9.35 °C to match UV melts; conditions: sodium 0.088 M
readout type: Tm
Kindly write the number and append the unit.

GCGTGATACGC ((((...)))) | 55.4 °C

Ask: Quick one: Tm of GGTTAGGGAAACTTAACC (((((.(....).))))) ?
Reply: 37.6 °C

Ask: Quick one: Tm of GGTAGCCGAAAGGCGACC (((.(((....))).))) ?
Reply: 66.9 °C

====

assay: melting temperature; fluorescence melt of hairpins on a sequencing array, two-state fit, raised by 9.35 °C to match UV melts; conditions: sodium 0.088 M
readout type: Tm
Kindly write the number and append the unit.

GATCTGTTCCCAGATC ((((((....)))))) | 48.6 °C
GTTGGGGGAAACCTCGAC ((.(.((....)).).)) | 34.7 °C
GCGGCCGAAAGGCGCCGC ((((((....)))..))) | 62.8 °C

Ask: Quick one: Tm of GATGGAGGAAACTCCGTC ((.((((....)))).)) ?
Reply: 48.9 °C

Ask: Quick one: Tm of CTTGAGAAATCAAG (((((....))))) ?
Reply: 35.6 °C

Ask: Quick one: Tm of GATCGAAACGTCGATC ((((((....)))))) ?
Reply: 50.3 °C

====

assay: folding enthalpy; higher = less favourable; fluorescence melt of hairpins on a sequencing array, two-state fit; settings: sodium 0.088 M
Here the recorded folding enthalpy is given for each entry.
Provide the reading as a plain figure in kcal/mol.

GATCGAGACTTCGATC ((((((....)))))) | -43.3
GATCGGCCGTCCGATC ((((((....)))))) | -39.7

Ask: Quick one: folding enthalpy of GCCCCCGGAAACGGGAGC ((.((((....)))).)) ?
Reply: -25

Ask: Quick one: folding enthalpy of GTTCTGCGAAAGCATAAC (((.(((....))).))) ?
Reply: -25

Ask: Quick one: folding enthalpy of GATCCCAGGCGGGATC ((((((....)))))) ?
Reply: -34

Ask: Quick one: folding enthalpy of GTCAGCGAAAGCTCCGAC ((((((....)))..))) ?
Reply: -13.5

Ask: Quick one: folding enthalpy of GAAGCCGAAAGGCAGTTC ((((((....)))..))) ?
Reply: -9.04

Ask: Quick one: folding enthalpy of GCGTATGGAAACATGCGC (((.(((....))).))) ?
Reply: -38.2

Ask: Quick one: folding enthalpy of GAGTTCGGAAACAAACTC (((((.(....).))))) ?
Reply: -27.5

Ask: Quick one: folding enthalpy of GAGGCCGAAAGGCACTC ((((((....))).))) ?
Reply: -14.5

Ask: Quick one: folding enthalpy of GGATTTGGAAACGAATCC (((((.(....).))))) ?
Reply: -34.9

Ask: Quick one: folding enthalpy of GTGCACCCGAAAGGGCAC (((..(((....)))))) ?
Reply: -23.9

Ask: Quick one: folding enthalpy of GATCAGGTACTGATC ((((((...)))))) ?
Reply: -41.1

====

test: folding enthalpy; higher = less favourable; fluorescence melt of hairpins on a sequencing array, two-state fit; details: sodium 0.088 M
Here the recorded folding enthalpy is given for each entry.
Kindly write the number and append the unit.

GGCTAGGCGAAAGCCGCC (((..(((....)))))) | -15 kcal/mol
GCTTCGCGAAAGCCAAGC ((((.((....)).)))) | -18.2 kcal/mol
GGCGTTCGAAAGAAAGCC (((.(((....))).))) | -34.1 kcal/mol

Ask: Quick one: folding enthalpy of GTAGCCGAAAGGCGCTAC ((((((....)))..))) ?
Reply: -9.33 kcal/mol

Ask: Quick one: folding enthalpy of GGTGCGGGAAACCACACC ((((.((....)).)))) ?
Reply: -54.3 kcal/mol

Ask: Quick one: folding enthalpy of CGCTCCCGGAAACGGGCG (((..(((....)))))) ?
Reply: -15.3 kcal/mol

====

test: melting temperature; fluorescence melt of hairpins on a sequencing array, two-state fit, raised by 9.35 °C to match UV melts; settings: sodium 0.088 M
readout type: Tm (°C)
Provide the reading as a plain figure in °C.

Worked examples follow.
GGTGTTCGAAAGAATACC (((.(((....))).))) | 53.6
GGGACCGAAAGGTAGCCC ((((((....)))..))) | 43.2
GATCGTAAGTACGATC ((((((....)))))) | 53.3
GATCGGCGATCCGATC ((((((....)))))) | 55
GGCTGCACGAAAGTGGCC (((..(((....)))))) | 49

In the following, a different sequence is considered.
Ask: Quick one: Tm of GATCCGAGGGCGGATC ((((((....)))))) ?
Reply: 55.3

====

assay: melting temperature; fluorescence melt of hairpins on a sequencing array, two-state fit, raised by 9.35 °C to match UV melts; settings: sodium 0.088 M
readout type: Tm (°C)
Provide the reading as a plain figure in °C.

Worked examples follow.
GTGGCCGAAAGGCGCCAC ((((((....)))..))) | 49
GATCGCATAGGCGATC ((((((....)))))) | 68.2
GCGGGGCGAAAGCGCTGC ((.(.((....)).).)) | 66.4
CGTCCGGAAACGGGGACG ((((((....)))..))) | 48.3
GACGCCGGAAACAGCGCC (.(((.(....).))).) | 31.8
GATCCTTAAGAGGATC ((((((....)))))) | 50.9
GGAGTGCGAAAGCAGTCC (((.(((....))).))) | 65.8
GTGGAACGAAAGTTTCAC (((.(((....))).))) | 53.2

Ask: Quick one: Tm of GTGGTCCGAAAGGAACAC (((.(((....))).))) ?
Reply: 65.4

Ask: Quick one: Tm of GCTAAACGAAAGTTGAGC (((.(((....))).))) ?
Reply: 50.8

Ask: Quick one: Tm of GTTTAAGAAATTAAAC ((((((....)))))) ?
Reply: 32.4
